experiment description: aqueous solubility of the free base, pH-dependent
Format: physicochemical
reported conditions: aqueous medium, aqueous buffer, alkaline conditions, pH 7
measured metric: solubility (µg/mL)
One number for each entry, in µg/mL.

So what does the record say about solubility for `Cc1nc(C#Cc2ccnc(Cl)c2)c(C)n1-c1ccc(F)cc1` ?
0.3
